Reference source: patent US20240026017A1

- Tested system: T1, human CC chemokine receptor 1 (human CCR1) (human, UniProt P32246 1-355)
- T1 construct: endogenous on THP-1 cells in the migration assays; also called hCCR1; CHO-S-hCCR1 (expressing cells)
- T1 sequence: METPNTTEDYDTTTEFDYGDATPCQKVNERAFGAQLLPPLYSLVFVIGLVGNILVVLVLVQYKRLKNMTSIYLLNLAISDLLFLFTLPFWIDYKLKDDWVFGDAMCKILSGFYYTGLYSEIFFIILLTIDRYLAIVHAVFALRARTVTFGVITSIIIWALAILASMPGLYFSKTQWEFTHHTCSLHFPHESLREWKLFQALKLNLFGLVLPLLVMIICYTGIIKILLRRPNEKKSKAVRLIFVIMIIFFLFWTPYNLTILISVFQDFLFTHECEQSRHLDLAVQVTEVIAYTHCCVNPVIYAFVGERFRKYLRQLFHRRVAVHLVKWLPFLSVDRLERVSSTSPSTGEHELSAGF
- Test details: flow cytometry on CHO-S-hCCR1 cells; bound = fluorescence 10 times or more that of isotype control chDNP1
Observed property: binding result

Item: chKM5908′ mut07 (antibody, V domains shown) VH: QVQLKQSGPGLVQPSQSLSITCTVSGFSLNNYGVHWVRQPPGKGLEWLGVIWSAGTTVYNAAAISRLSISKDDSKSQVFFKMNSLQAGDTAIYYCAKDGSRYYTAMDYWGQGTSVTVSS VL: DVVMTQTPLSLPVSLGDQASIFCRSSQSLVHRNGITFFHWYLQKPGQSPKLLIYKVSNRFSGVPDRFSGSGSGTDFTLKISRVAPDDLGVYFCSQGTHVPPTFGGGTKLEIK | binding result: binds

Data point: chKM5908′ mut13 (antibody, V domains shown) VH: QVQLKQSGPGLVQPSQSLSITCTVSGFSLNNYGVHWVRQPPGKGLEWLGVTWSAGTTVYNAAFASRLSISKDDSKSQVFFKMNSLQAGDTAIYYCAKDGSRYYAAMDYWGQGTSVTVSS VL: DVVMTQTPLSLPVSLGDQASIFCRSSQSLVHRNGITFFHWYLQKPGQSPKLLIYKVSNRFSGVPDRFSGSGSGTDFTLKISRVAPDDLGVYFCSQGTHVPPTFGGGTKLEIK ; binding result = binds
